// provenance: ChEMBL document CHEMBL1142506

test system: Platelet; test: Inhibition of adenosine diphosphate-induced platelet aggregation in pig blood; type: functional, cell-based; conditions: Sus scrofa
Square brackets hold non-standard residues; d marks the D form. Peptide text beside a SMILES is read from it. Tic = O=C(O)[C@@H]1Cc2ccccc2CN1
What IC50 was measured for each of the following?

Query: Quick check: IC50 on Platelet, item C[C@@H](O)[C@H](N)C(=O)N1Cc2ccccc2C[C@H]1C(=O)O (H-Thr-[Tic]-OH) ?
Reply: 0.24 µM

Query: Consider next the compound O=C(O)[C@@H]1Cc2ccccc2CN1C(=O)[C@@H]1CCCN1 (H-Pro-[Tic]-OH) in the same way.
Reply: 0.373 µM

Query: Check CC(C)[C@H](N)C(=O)N1Cc2ccccc2C[C@H]1C(=O)O (H-Val-[Tic]-OH) too.
Reply: 0.389 µM

Query: Field entry: N=C(N)NCCC[C@H](N)C(=O)N1Cc2ccccc2C[C@H]1C(=O)O (H-Arg-[Tic]-OH)
Reply: 0.21 µM

Query: Entry to check: NCC(=O)N1Cc2ccccc2C[C@H]1C(=O)O (H-Gly-[Tic]-OH)
Reply: 0.365 µM

Query: Same again, this time with NC(=O)CC[C@H](N)C(=O)N1Cc2ccccc2C[C@H]1C(=O)O (H-Gln-[Tic]-OH)
Reply: 0.302 µM

Query: Queued: N[C@@H](CC(=O)O)C(=O)N1Cc2ccccc2C[C@H]1C(=O)O (H-Asp-[Tic]-OH)
Reply: 0.345 µM

Query: Try this compound too: N[C@@H](Cc1ccccc1)C(=O)N1Cc2ccccc2C[C@H]1C(=O)O (H-Phe-[Tic]-OH)
Reply: 0.37 µM

Query: What about this compound? N[C@@H](Cc1ccc(O)cc1)C(=O)N1Cc2ccccc2C[C@H]1C(=O)O (H-Tyr-[Tic]-OH)
Reply: 0.327 µM

Query: Now this one: C[C@H](N)C(=O)N1Cc2ccccc2C[C@H]1C(=O)O (H-Ala-[Tic]-OH)
Reply: 0.651 µM

Query: Similarly, N[C@@H](CCC(=O)O)C(=O)N1Cc2ccccc2C[C@H]1C(=O)O (H-Glu-[Tic]-OH) ?
Reply: 0.494 µM

Query: Next up: CC[C@H](C)[C@H](N)C(=O)N1Cc2ccccc2C[C@H]1C(=O)O (H-Ile-[Tic]-OH)
Reply: 0.315 µM

Query: Now consider N[C@@H](Cc1c[nH]c2ccccc12)C(=O)N1Cc2ccccc2C[C@H]1C(=O)O (H-Trp-[Tic]-OH) .
Reply: 0.194 µM

Query: Thanks! And O=C(O)[C@@H]1Cc2c([nH]c3ccccc23)CN1 ?
Reply: 3.32 µM

Query: Check NCCCC[C@H](N)C(=O)N1Cc2ccccc2C[C@H]1C(=O)O (H-Lys-[Tic]-OH) too.
Reply: 0.323 µM

Query: Now the compound N[C@@H](Cc1c[nH]cn1)C(=O)N1Cc2ccccc2C[C@H]1C(=O)O (H-His-[Tic]-OH)
Reply: 0.324 µM

Query: Can you check CC(C)C[C@H](N)C(=O)N1Cc2ccccc2C[C@H]1C(=O)O (H-Leu-[Tic]-OH) next?
Reply: 0.336 µM

Query: Same lookup for N[C@@H](CO)C(=O)N1Cc2ccccc2C[C@H]1C(=O)O (H-Ser-[Tic]-OH) , please.
Reply: 0.103 µM

Query: How about O=C(O)[C@@H]1Cc2ccccc2CN1 ?
Reply: 0.552 µM

Query: # repeat for CSCC[C@H](N)C(=O)N1Cc2ccccc2C[C@H]1C(=O)O (H-Met-[Tic]-OH)
Reply: 0.265 µM

Query: Same question, NC(=O)C[C@H](N)C(=O)N1Cc2ccccc2C[C@H]1C(=O)O (H-Asn-[Tic]-OH) this time
Reply: 0.534 µM

---

tested on: Platelet; assay: Inhibition of arachidonic acid-induced platelet aggregation in pig blood; format: functional, cell-based; details: Sus scrofa
Square brackets hold non-standard residues; d marks the D form. Peptide text beside a SMILES is read from it. Tic = O=C(O)[C@@H]1Cc2ccccc2CN1
# strict inequality: IC50 < 400 nM yields Condition met, everything else yields Condition not met

Query: Does the reported IC50 of C[C@H](N)C(=O)N1Cc2ccccc2C[C@H]1C(=O)O (H-Ala-[Tic]-OH) stay below 400 nM?
Reply: Condition not met

Query: Another compound to look at: N[C@@H](Cc1ccc(O)cc1)C(=O)N1Cc2ccccc2C[C@H]1C(=O)O (H-Tyr-[Tic]-OH)
Reply: Condition not met

Query: Do the same for O=C(O)[C@@H]1Cc2ccccc2CN1C(=O)[C@@H]1CCCN1 (H-Pro-[Tic]-OH) please
Reply: Condition met

Query: Can you check N[C@@H](CC(=O)O)C(=O)N1Cc2ccccc2C[C@H]1C(=O)O (H-Asp-[Tic]-OH) next?
Reply: Condition met

Query: Lookup NC(=O)CC[C@H](N)C(=O)N1Cc2ccccc2C[C@H]1C(=O)O (H-Gln-[Tic]-OH)
Reply: Condition met

Query: What do we get for NCCCC[C@H](N)C(=O)N1Cc2ccccc2C[C@H]1C(=O)O (H-Lys-[Tic]-OH) ?
Reply: Condition met

Query: Moving on to the next compound: CC(C)[C@H](N)C(=O)N1Cc2ccccc2C[C@H]1C(=O)O (H-Val-[Tic]-OH)
Reply: Condition not met

Query: Same question for O=C(O)[C@@H]1Cc2ccccc2CN1 please.
Reply: Condition not met

Query: For N[C@@H](Cc1c[nH]cn1)C(=O)N1Cc2ccccc2C[C@H]1C(=O)O (H-His-[Tic]-OH) then?
Reply: Condition not met

Query: What about N[C@@H](CO)C(=O)N1Cc2ccccc2C[C@H]1C(=O)O (H-Ser-[Tic]-OH) ?
Reply: Condition met

Query: Now consider N[C@@H](CCC(=O)O)C(=O)N1Cc2ccccc2C[C@H]1C(=O)O (H-Glu-[Tic]-OH) and answer again.
Reply: Condition met

Query: Field entry: CC[C@H](C)[C@H](N)C(=O)N1Cc2ccccc2C[C@H]1C(=O)O (H-Ile-[Tic]-OH)
Reply: Condition not met

Query: Do the same for C[C@@H](O)[C@H](N)C(=O)N1Cc2ccccc2C[C@H]1C(=O)O (H-Thr-[Tic]-OH) please
Reply: Condition not met

Query: Let us now turn to CC(C)C[C@H](N)C(=O)N1Cc2ccccc2C[C@H]1C(=O)O (H-Leu-[Tic]-OH)
Reply: Condition met

Query: # repeat for NCC(=O)N1Cc2ccccc2C[C@H]1C(=O)O (H-Gly-[Tic]-OH)
Reply: Condition not met

Query: Try this compound next: N[C@@H](Cc1ccccc1)C(=O)N1Cc2ccccc2C[C@H]1C(=O)O (H-Phe-[Tic]-OH)
Reply: Condition not met

Query: Input O=C(O)[C@@H]1Cc2c([nH]c3ccccc23)CN1
Reply: Condition not met

Query: Continue with CSCC[C@H](N)C(=O)N1Cc2ccccc2C[C@H]1C(=O)O (H-Met-[Tic]-OH)
Reply: Condition not met

Query: Same question, N=C(N)NCCC[C@H](N)C(=O)N1Cc2ccccc2C[C@H]1C(=O)O (H-Arg-[Tic]-OH) this time
Reply: Condition met

Query: Follow-up item: N[C@@H](Cc1c[nH]c2ccccc12)C(=O)N1Cc2ccccc2C[C@H]1C(=O)O (H-Trp-[Tic]-OH)
Reply: Condition not met

---

tested on: Platelet; assay: Inhibition of platelet-activating factor-induced platelet aggregation in pig blood; type: functional, cell-based; settings: Sus scrofa
Square brackets hold non-standard residues; d marks the D form. Peptide text beside a SMILES is read from it. Tic = O=C(O)[C@@H]1Cc2ccccc2CN1
For each record, write down the corresponding IC50.
Report the value in nM with no unit label.

Query: # IC50 lookup, item CC[C@H](C)[C@H](N)C(=O)N1Cc2ccccc2C[C@H]1C(=O)O (H-Ile-[Tic]-OH)
Reply: 831

Query: Another: NC(=O)CC[C@H](N)C(=O)N1Cc2ccccc2C[C@H]1C(=O)O (H-Gln-[Tic]-OH)
Reply: 392

Query: Entry C[C@H](N)C(=O)N1Cc2ccccc2C[C@H]1C(=O)O (H-Ala-[Tic]-OH) please
Reply: 945

Query: Try N[C@@H](Cc1ccccc1)C(=O)N1Cc2ccccc2C[C@H]1C(=O)O (H-Phe-[Tic]-OH) next.
Reply: 527

Query: What do you have for N[C@@H](Cc1c[nH]cn1)C(=O)N1Cc2ccccc2C[C@H]1C(=O)O (H-His-[Tic]-OH) ?
Reply: 670

---

test system: Platelet; assay: Inhibition of platelet-activating factor-induced platelet aggregation in pig blood; format: functional, cell-based; conditions: Sus scrofa
Square brackets hold non-standard residues; d marks the D form. Peptide text beside a SMILES is read from it. Tic = O=C(O)[C@@H]1Cc2ccccc2CN1
Under this convention, fulfilled denotes IC50 strictly below 500 nM and not fulfilled denotes IC50 at or above 500 nM.

Query: Just wondering, is IC50 of O=C(O)[C@@H]1Cc2ccccc2CN1 below 500 nM?
Reply: not fulfilled

Query: Now consider N=C(N)NCCC[C@H](N)C(=O)N1Cc2ccccc2C[C@H]1C(=O)O (H-Arg-[Tic]-OH) .
Reply: not fulfilled

Query: Record: N[C@@H](Cc1c[nH]c2ccccc12)C(=O)N1Cc2ccccc2C[C@H]1C(=O)O (H-Trp-[Tic]-OH)
Reply: fulfilled

Query: // next record CC(C)C[C@H](N)C(=O)N1Cc2ccccc2C[C@H]1C(=O)O (H-Leu-[Tic]-OH)
Reply: not fulfilled

Query: Okay, and N[C@@H](CO)C(=O)N1Cc2ccccc2C[C@H]1C(=O)O (H-Ser-[Tic]-OH) ?
Reply: fulfilled

Query: Queued: CC(C)[C@H](N)C(=O)N1Cc2ccccc2C[C@H]1C(=O)O (H-Val-[Tic]-OH)
Reply: not fulfilled

Query: Would you kindly repeat that for O=C(O)[C@@H]1Cc2c([nH]c3ccccc23)CN1 [CYCLOMETHYLTRYPTOPHAN] ?
Reply: not fulfilled

Query: Now the compound C[C@@H](O)[C@H](N)C(=O)N1Cc2ccccc2C[C@H]1C(=O)O (H-Thr-[Tic]-OH)
Reply: fulfilled

Query: Same again, this time with N[C@@H](CCC(=O)O)C(=O)N1Cc2ccccc2C[C@H]1C(=O)O (H-Glu-[Tic]-OH)
Reply: not fulfilled

Query: Please answer likewise for N[C@@H](Cc1ccc(O)cc1)C(=O)N1Cc2ccccc2C[C@H]1C(=O)O (H-Tyr-[Tic]-OH)
Reply: not fulfilled

Query: Lookup NCC(=O)N1Cc2ccccc2C[C@H]1C(=O)O (H-Gly-[Tic]-OH)
Reply: not fulfilled

Query: Further, for NC(=O)C[C@H](N)C(=O)N1Cc2ccccc2C[C@H]1C(=O)O (H-Asn-[Tic]-OH) ?
Reply: fulfilled

Query: Try this compound next: NCCCC[C@H](N)C(=O)N1Cc2ccccc2C[C@H]1C(=O)O (H-Lys-[Tic]-OH)
Reply: fulfilled

Query: Let us now turn to CSCC[C@H](N)C(=O)N1Cc2ccccc2C[C@H]1C(=O)O (H-Met-[Tic]-OH)
Reply: fulfilled

Query: Request: N[C@@H](CC(=O)O)C(=O)N1Cc2ccccc2C[C@H]1C(=O)O (H-Asp-[Tic]-OH)
Reply: fulfilled
